Listed here are compounds together with their documented pIC50.
STUDY TARGET: pEGFR, A431 cells (wildtype EGFR) (Homo sapiens, UniProt P00533)
Construct: pEGFR (Tyr1068) TR-FRET
Sequence (P00533 25-1210): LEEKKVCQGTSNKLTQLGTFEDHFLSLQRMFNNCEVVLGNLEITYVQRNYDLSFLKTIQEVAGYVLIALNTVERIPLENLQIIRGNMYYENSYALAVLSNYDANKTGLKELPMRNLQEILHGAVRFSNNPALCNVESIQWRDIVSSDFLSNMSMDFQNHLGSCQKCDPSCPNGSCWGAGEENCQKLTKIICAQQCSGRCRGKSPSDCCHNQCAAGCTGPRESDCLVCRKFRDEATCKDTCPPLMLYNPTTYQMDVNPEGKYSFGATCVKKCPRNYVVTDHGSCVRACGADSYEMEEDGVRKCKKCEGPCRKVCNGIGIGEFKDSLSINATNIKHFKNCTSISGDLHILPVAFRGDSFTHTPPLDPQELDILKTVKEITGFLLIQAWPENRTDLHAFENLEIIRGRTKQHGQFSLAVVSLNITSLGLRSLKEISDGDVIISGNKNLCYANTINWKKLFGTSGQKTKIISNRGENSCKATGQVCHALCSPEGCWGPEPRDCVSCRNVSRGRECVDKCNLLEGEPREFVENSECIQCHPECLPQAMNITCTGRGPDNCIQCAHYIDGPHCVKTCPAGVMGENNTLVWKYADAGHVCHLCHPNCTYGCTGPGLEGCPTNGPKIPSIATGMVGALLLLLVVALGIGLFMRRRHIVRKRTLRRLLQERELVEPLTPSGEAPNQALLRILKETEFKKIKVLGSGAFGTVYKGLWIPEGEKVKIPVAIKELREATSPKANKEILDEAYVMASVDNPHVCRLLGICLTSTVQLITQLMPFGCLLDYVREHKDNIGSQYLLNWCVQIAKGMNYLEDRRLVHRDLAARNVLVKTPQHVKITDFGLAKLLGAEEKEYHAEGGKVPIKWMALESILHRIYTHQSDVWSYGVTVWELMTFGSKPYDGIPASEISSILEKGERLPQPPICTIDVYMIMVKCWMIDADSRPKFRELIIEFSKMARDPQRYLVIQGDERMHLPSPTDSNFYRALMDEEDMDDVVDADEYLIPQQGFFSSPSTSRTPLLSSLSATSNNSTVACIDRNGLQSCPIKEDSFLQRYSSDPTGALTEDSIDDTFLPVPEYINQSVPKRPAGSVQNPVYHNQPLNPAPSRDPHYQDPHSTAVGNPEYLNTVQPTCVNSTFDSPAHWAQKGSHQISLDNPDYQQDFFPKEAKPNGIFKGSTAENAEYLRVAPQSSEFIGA
ASSAY SUMMARY: Cellular EGFR phosphorylation assay (LANCE Ultra TR-FRET) in A431 cells
Type: cell-based
MEASUREMENT CONTEXT: 4 hours at 37° C., 40 ng/mL EGF for the final 10 minutes, read-out: A431 pEGFR IC50
pIC50: −log10 of the molar value.
MEASUREMENT TYPE: pIC50

1) CCOc1nn([C@@H](C)CO)c2c1/C=C/c1n[nH]c3cnc(cc13)-c1c(C)nn(C)c1O[C@H](C)CN(C)C2 [Ex. 35]
7.82
2) CCN1Cc2c(c(OCC#N)nn2[C@@H](C)CO)/C=C/c2n[nH]c3cnc(cc23)-c2c(C)nn(C)c2O[C@@H](C)C1 [Ex. 67]
7.80
3) CCOc1nn([C@H](C)CO)c2c1/C=C/c1n[nH]c3cnc(cc13)-c1c(C)nn(C)c1O[C@H](C)CN(C)C2 [Ex. 89]
7.47
4) CCOc1nn([C@@H](C)CO)c2c1/C=C/c1n[nH]c3cnc(cc13)-c1c(C)nn(C)c1O[C@@H](C)CN(C)C2 [Ex. 27]
7.90
5) CCOc1nn([C@@H](C)CO)c2c1/C=C/c1n[nH]c3cnc(cc13)-c1c(C)nn(C)c1O[C@@H](C)CN(CC)C2 [Ex. 26]
7.91
6) CCOc1nn(CCO)c2c1/C=C/c1n[nH]c3cnc(cc13)-c1cnn(C)c1O[C@@H](C)CN(C(C)C)C2 [Ex. 11]
7.79
7) CCOc1nn([C@@H](C)CO)c2c1/C=C/c1n[nH]c3c(C)nc(cc13)-c1cnn(C)c1O[C@@H](C)CN(C)C2 [Ex. 45]
7.92
8) CCOc1nn([C@@H](C)CO)c2c1/C=C/c1n[nH]c3cnc(cc13)-c1c(C)nn(C)c1O[C@@H](C)CNC2 [Ex. 92]
7.48
9) CCOc1nn(CCO)c2c1/C=C/c1n[nH]c3c(C)nc(cc13)-c1c(C)nn(C)c1O[C@H](C)[C@H]1CCCN1C2 [Ex. 178]
7.90
10) Cc1nn(C)c2c1-c1cc3c(n[nH]c3cn1)/C=C/c1c(OCC#N)nn(CCO)c1CN(C)[C@@H](C)CO2 [Ex. 31]
6.93
11) CCN1Cc2c(c(OC(C)C)nn2CCO)/C=C/c2n[nH]c3cnc(cc23)-c2cnn(C)c2O[C@@H](C)C1 [Ex. 9]
7.70
12) CCOc1nn(CCO)c2c1/C=C/c1n[nH]c3cnc(cc13)-c1c(C)nn(C)c1OC[C@H](C)N(CC)C2 [Ex. 16]
7.70
13) CCOc1nn([C@@H](C)CO)c2c1/C=C/c1n[nH]c3cnc(cc13)-c1c(C)nn(C)c1OC[C@@H](C)N(C)C2 [Ex. 97]
7.96
14) Cc1nn(CCO)c2c1/C=C/c1n[nH]c3cnc(cc13)-c1c(C)nn(C)c1O[C@H](C)CN(C(C)C)C2 [Ex. 20]
7.21

* * *

STUDY TARGET: pEGFR, A431 cells (wildtype EGFR) (Homo sapiens)
Construct: pEGFR (Tyr1068) TR-FRET
ASSAY SUMMARY: Cellular EGFR phosphorylation assay (LANCE Ultra TR-FRET) in A431 cells
Type: cell-based
MEASUREMENT CONTEXT: 4 hours at 37° C., 40 ng/mL EGF for the final 10 minutes, read-out: A431 pEGFR IC50
pIC50: −log10 of the molar value.
Listed here are compounds together with their documented pIC50.
MEASUREMENT TYPE: pIC50

1) Cc1nc2cc3c(n[nH]c13)/C=C/c1c(OC(C)C)nn(CCO)c1CN(C)C[C@H](C)Oc1c-2cnn1C [Ex. 40]
7.83
2) Cc1nn(C)c2c1/C=C/c1n[nH]c3c(C)nc(cc13)-c1c(C)nn(C)c1O[C@@H](C)CN(C)C2 [Ex. 103]
7.87
3) CCOc1nn([C@@H](C)CO)c2c1/C=C/c1n[nH]c3cnc(cc13)-c1c(C)nn(C)c1OC[C@H]1CCCN1C2 [Ex. 65]
7.80
4) Cc1nn(C)c2c1-c1cc3c(n[nH]c3cn1)/C=C/c1c(OCC#N)nn(CCO)c1CN(C)C[C@H](C)O2 [Ex. 22]
7.17
5) CCOc1nn([C@@H](C)CO)c2c1/C=C/c1n[nH]c3cnc(cc13)-c1c(C)nn(C)c1O[C@@H](C)[C@H]1CCCN1C2 [Ex. 56]
8.08
6) CCOc1nn(CCO)c2c1/C=C/c1n[nH]c3cnc(cc13)-c1c(C)nn(C)c1O[C@H](C)[C@H]1CCCN1C2 [Ex. 33]
7.75
7) CCOc1nn(CCO)c2c1/C=C/c1n[nH]c3cnc(cc13)-c1c(C)nn(C)c1O[C@H](C)CN(C(C)C)C2 [Ex. 1]
7.72
